biological target: jack bean urease (JBU) (Canavalia ensiformis); construct: Jack bean urease (JBU) (Type III, 40.3 U/mg) were offered by Sigma; purchased Sigma Type III, 40.3 U/mg (catalogue number not given); assay: biochemical; settings: 20 min preincubation at 37°C, 150 mM urea, pH 7.5; read-out: IC50
Sequence (P07374 whole entry, looked up): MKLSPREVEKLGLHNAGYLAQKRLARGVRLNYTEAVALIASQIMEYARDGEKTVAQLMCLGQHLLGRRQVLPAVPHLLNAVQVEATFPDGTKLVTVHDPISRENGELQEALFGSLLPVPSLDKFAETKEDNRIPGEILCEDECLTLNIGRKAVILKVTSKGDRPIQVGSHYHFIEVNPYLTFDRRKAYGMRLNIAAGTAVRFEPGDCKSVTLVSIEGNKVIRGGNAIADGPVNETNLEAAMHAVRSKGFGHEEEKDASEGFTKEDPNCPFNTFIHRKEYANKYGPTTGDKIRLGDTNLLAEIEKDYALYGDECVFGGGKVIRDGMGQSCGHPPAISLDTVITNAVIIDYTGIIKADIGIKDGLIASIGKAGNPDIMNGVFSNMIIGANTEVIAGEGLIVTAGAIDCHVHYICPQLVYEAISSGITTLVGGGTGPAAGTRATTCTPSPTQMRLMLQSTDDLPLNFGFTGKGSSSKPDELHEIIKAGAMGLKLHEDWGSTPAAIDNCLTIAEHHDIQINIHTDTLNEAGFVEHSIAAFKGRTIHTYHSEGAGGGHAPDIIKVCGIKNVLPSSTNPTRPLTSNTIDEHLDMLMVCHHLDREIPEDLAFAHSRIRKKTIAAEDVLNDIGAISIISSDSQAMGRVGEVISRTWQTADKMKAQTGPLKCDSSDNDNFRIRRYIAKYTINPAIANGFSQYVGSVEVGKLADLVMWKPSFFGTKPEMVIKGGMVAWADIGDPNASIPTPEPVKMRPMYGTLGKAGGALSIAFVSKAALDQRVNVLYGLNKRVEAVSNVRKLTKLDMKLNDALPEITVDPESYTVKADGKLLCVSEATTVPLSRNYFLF
Value Type: IC50 (µM)

[
  {
    "Molecule": "CC(=O)NO [AHA, Acetohydroxamic acid, reference compound]",
    "Readout Units": "µM",
    "Value Reported": 20
  }
]

====

molecular target: UniProt P07374

[
  {
    "Compound": "Oc1cc(O)cc(/C=C/c2ccc(O)c(O)c2)c1 [PIC, Piceatannol]",
    "Ki [µM]": 340
  }
]

====

target: H. pylori urease (HPU) (Helicobacter pylori, UniProt P69996); construct: endogenous in cells; host or cells: Helicobacter pylori ATCC 43504 (extract, method of Matsubara et al. 2003); assay: Urease inhibition test (Berthelot, ammonia at 595 nm); type: biochemical
Sequence (P69996 whole entry): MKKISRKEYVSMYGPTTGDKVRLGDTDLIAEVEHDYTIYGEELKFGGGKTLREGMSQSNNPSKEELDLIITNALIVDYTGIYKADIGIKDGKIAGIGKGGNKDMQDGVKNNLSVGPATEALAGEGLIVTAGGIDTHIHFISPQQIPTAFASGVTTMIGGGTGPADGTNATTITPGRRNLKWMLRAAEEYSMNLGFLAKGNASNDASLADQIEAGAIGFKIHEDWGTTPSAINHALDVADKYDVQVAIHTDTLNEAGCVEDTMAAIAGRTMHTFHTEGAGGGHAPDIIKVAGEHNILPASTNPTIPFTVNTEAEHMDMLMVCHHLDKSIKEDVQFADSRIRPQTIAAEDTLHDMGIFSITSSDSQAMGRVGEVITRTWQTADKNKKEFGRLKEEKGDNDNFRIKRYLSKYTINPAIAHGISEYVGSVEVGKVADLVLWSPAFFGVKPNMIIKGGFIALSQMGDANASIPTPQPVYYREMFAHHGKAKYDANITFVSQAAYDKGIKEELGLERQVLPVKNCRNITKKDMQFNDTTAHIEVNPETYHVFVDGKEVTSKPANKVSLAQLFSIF
Sequence (P14916 whole entry, further chain): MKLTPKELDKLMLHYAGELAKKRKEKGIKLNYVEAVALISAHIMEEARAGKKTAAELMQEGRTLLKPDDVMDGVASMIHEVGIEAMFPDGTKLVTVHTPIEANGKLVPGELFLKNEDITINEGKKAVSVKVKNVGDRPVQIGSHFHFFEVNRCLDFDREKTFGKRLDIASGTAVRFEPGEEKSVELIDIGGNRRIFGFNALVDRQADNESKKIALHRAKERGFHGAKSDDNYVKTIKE
pIC50: −log10 of the molar value.
Value Type: pIC50

[
  {
    "Chemical String": "Oc1cc(O)cc(/C=C/c2ccc(O)c(O)c2)c1",
    "Target": "H. pylori urease (HPU) (Helicobacter pylori, UniProt P69996)",
    "Value Reported": 3.17
  }
]
